Values from paper PMC3684613

Test system: P. falciparum 3D7
test protocol: DAPI stain fluorescent high content imaging assay, P. falciparum 3D7 (confirmatory screen, Avery)
test settings: Plasmodium falciparum, 3D7, read-out: EC50_nM
pEC50: −log10 of the molar value.
Classification field: enter T for pEC50 values not below 6, F for values below it.

Examples from the recorded data:
{"molecule": "CCOc1ccc(C=Cc2nc(=O)c3ccccc3o2)cc1 [MMV665940]", "class": "T"}
{"molecule": "CC1CN(C(=O)c2sc3ccccc3c2Cl)CC(C)O1 (stereo not shown) [MMV020492]", "class": "T"}
{"molecule": "CN(C)c1ccc(C=Cc2nc(=O)c3ccccc3o2)cc1 [MMV006309]", "class": "T"}
{"molecule": "CCOC(=O)c1cn(CC)c2cc(N3CCCCC3)c(F)cc2c1=O [MMV665827]", "class": "T"}
{"molecule": "CC(=O)c1sc(NC(=O)Nc2ccc(C)cc2C)nc1C [MMV665894]", "class": "T"}

Does pEC50 meet or surpass 6 for CCN(CC)CCNc1ncnc2c1[nH]c1ccc(Cl)cc12 [MMV396703] ?
T

Evaluate c1ccc2c(NCCc3c[nH]c4ccccc34)c3ccccc3nc2c1 [MMV006513] : pEC50 at minimum 6?
T

Determine whether measured pEC50 meets or exceeds 6 for CCCCCC(=O)N1c2ccccc2N=C2CC(c3ccc(OC)c(OC)c3)CC(O)=C2C1c1ccc(C(F)(F)F)cc1 (stereo not shown) [MMV085583]
T

Reported pEC50 reaches at least 6 for COc1ccc(C2c3ccc4ccccc4c3Oc3ncn(CCCn4ccnc4)c(=N)c32)cc1OC (stereo not shown) [MMV667490] ?
F

Given the entry CCCN(CCC)CC(O)COc1ccccc1C(=O)Nc1ccccc1 (stereo not shown) [MMV006455] , answer whether its pEC50 meets or surpasses 6.
T

* * *

System: P. falciparum 3D7
test protocol: DAPI stain fluorescent high content imaging assay, P. falciparum 3D7 (confirmatory screen, Avery)
test settings: Plasmodium falciparum, 3D7, read-out: EC50_nM
T if EC50 is below 300 nM. F if not; exact matches included in F.

For orientation, consider the following solved cases.
{"compound": "CCn1nc(-c2ccc(C(=O)OC)cc2)nc2c(=O)n(C)c(=O)nc1-2", "class": "F"}
{"compound": "CC1CCN(Cc2ccc(NC(=O)c3cc4ccc5cccnc5c4[nH]3)cc2)CC1", "class": "T"}
{"compound": "Cc1cc(Nc2ccc(OCc3ccccc3)cc2)nc2cc(O)ccc12", "class": "F"}
{"compound": "COc1cc(C(=O)Nc2nc3c(cc4c5c(cccc53)CC4)s2)cc(OC)c1OC", "class": "F"}
{"compound": "Cc1ccc(-c2cc3c(nn2)-c2ccccc2C3=O)cc1", "class": "T"}

I'd appreciate it if you could check whether CCOC(=O)C1=C(C)N=c2sc(=Cc3cc(Cl)ccc3O)c(=O)n2C1c1ccc(OC)cc1 (stereo not shown) has EC50 smaller than 300 nM.
F

Please indicate whether the reported EC50 of "CCN1CCN(Cc2ccc(NC(=O)c3cc4ccc5cccnc5c4[nH]3)cc2)CC1" is strictly below 300 nM.
F

Bench note: check whether "COc1ccc(C=C2SC(Nc3ccccc3)=NC2=O)cc1" shows EC50 below 300 nM
F

* * *

Tested on: P. falciparum 3D7
test protocol: DAPI stain fluorescent high content imaging assay, P. falciparum 3D7 (confirmatory screen, Avery)
test settings: Plasmodium falciparum, 3D7, read-out: percent_inh @ 5 uM
measured quantity: inhibition of growth at 5 µM (%)
Only the number, expressed in %, is required.

Example entries begin here.
{"compound": "COc1ccc(C2C(C(=O)Nc3cccc(OC)c3)c3ccccc3C(=O)N2C2CCCCC2)cc1 (stereo not drawn) [MMV008455]", "unit of measurement": "%", "inhibition of growth at 5 µM": 97}
{"compound": "O=C1c2ccccc2-c2nnc(-c3ccc(Br)cc3)cc21 [MMV665934]", "unit of measurement": "%", "inhibition of growth at 5 µM": 99}
{"compound": "CCCCOc1ccc(C(=O)Nc2cc(C)on2)cc1 [MMV007906]", "unit of measurement": "%", "inhibition of growth at 5 µM": 73}

Field: next compound
Requested field: inhibition of growth at 5 µM. Item: Cc1cc(Nc2ccc(C)c(Cl)c2)n2nc(C(F)(F)F)nc2n1 [MMV665874]
98
